System: Human immunodeficiency virus 1
Procedure summary: Antiviral activity against atazanavir-resistant HIV1 NL4-3
Type: functional, organism-based
Condition info: Human immunodeficiency virus 1, NL4-3
pEC50: −log10 of the molar value.
Measurement label: pEC50

| Compound structure string | Endpoint value |
| --- | --- |
| COc1ccc(S(=O)(=O)N(C[C@H]2CCC(=O)N2)C[C@@H](O)[C@H](Cc2ccccc2)NC(=O)O[C@@H]2C[C@@H]3CCO[C@@H]3C2)cc1 | 7.44 |

----------
Tested on: Human immunodeficiency virus 1
Procedure summary: Antiviral activity against multidrug-resistant HIV1 isolate TM infected in PHA-stimulated PBMC assessed as inhibition of p24 […] protein
Type: functional, organism-based
Condition info: Human immunodeficiency virus 1, isolate TM
pEC50: −log10 of the molar value.

| Compound structure string | Measured on | Comparative sign | pEC50 |
| --- | --- | --- | --- |
| COc1ccc(S(=O)(=O)N(C[C@H]2CCC(=O)N2)C[C@@H](O)[C@H](Cc2ccccc2)NC(=O)O[C@@H]2C[C@@H]3CCO[C@@H]3C2)cc1 | Human immunodeficiency virus 1 | = | 7.54 |
| CC(C)(C)NC(=O)[C@@H]1CN(Cc2cccnc2)CCN1C[C@@H](O)C[C@@H](Cc1ccccc1)C(=O)N[C@H]1c2ccccc2C[C@H]1O.O | Human immunodeficiency virus 1 | < | 6.00 |
| CC(C)CN(C[C@@H](O)[C@H](Cc1ccccc1)NC(=O)O[C@H]1CCOC1)S(=O)(=O)c1ccc(N)cc1 | Human immunodeficiency virus 1 | = | 6.60 |
